Entry source: ChEMBL document CHEMBL5226303

TARGET OR SYSTEM: Free fatty acid receptor 4 (Homo sapiens, UniProt Q5NUL3)
Sequence (Q5NUL3 whole entry): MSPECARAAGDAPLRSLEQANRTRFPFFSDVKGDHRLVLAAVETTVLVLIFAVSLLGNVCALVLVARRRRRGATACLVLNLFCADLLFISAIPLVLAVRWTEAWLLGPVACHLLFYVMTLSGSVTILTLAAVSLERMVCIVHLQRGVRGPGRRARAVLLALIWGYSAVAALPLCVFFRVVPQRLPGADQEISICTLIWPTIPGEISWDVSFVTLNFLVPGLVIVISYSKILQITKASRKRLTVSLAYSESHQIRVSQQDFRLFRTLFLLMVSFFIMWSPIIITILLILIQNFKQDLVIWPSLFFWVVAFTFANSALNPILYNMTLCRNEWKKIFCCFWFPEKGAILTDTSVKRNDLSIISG
ASSAY: Agonist activity at human GPR120 expressed in HEK293 cells by beta-arrestin assay
Format: cell-based
PARAMETER MEASURED: pEC50
Give bare numbers, as −log10 of the molar value.

Reported pEC50, compound OCCCc1c(F)cc(OCc2c(-c3ccc(Cl)cc3)csc2C(F)(F)F)cc1F : ____ 6.90

* * *

TARGET OR SYSTEM: Free fatty acid receptor 4 (Homo sapiens, UniProt Q5NUL3)
ASSAY: Agonist activity at human GPR120 expressed in HEK293 cells assessed as calcium accumulation
Type: cell-based
PARAMETER MEASURED: pEC50
Give bare numbers, as −log10 of the molar value.

Reported pEC50, compound OCCCc1c(F)cc(OCc2c(-c3ccc(Cl)cc3)csc2C(F)(F)F)cc1F : ____ 6.78
